run conditions: in isobutanol, 278.15 K
property: solubility (mole fraction)

{"columns": ["smiles code", "property", "val"],
 "data": [
  ["COc1cc2nc(Cl)nc(N)c2cc1OC", "solubility (mole fraction)", 0.000272]
]}

###

run conditions: in isobutanol, 288.15 K
property: solubility (mole fraction)

{"columns": ["smiles code", "property", "val"],
 "data": [
  ["COc1cc2nc(Cl)nc(N)c2cc1OC", "solubility (mole fraction)", 0.00038]
]}

###

run conditions: in cyclohexanone, 308.15 K
property: solubility (mole fraction)

{"columns": ["smiles code", "val"],
 "data": [
  ["COc1cc2nc(Cl)nc(N)c2cc1OC", 0.00324]
]}
